# System tested: rP2X4R E285A mutant (Rattus norvegicus, UniProt P51577, E285A)
# Protocol description: whole-cell patch clamp, HEK293T cells expressing mutant
# Protocol conditions: naïve receptors, 2–5 s application
Readout type: pEC50
Expect pEC50 as a plain number equal to -log10 of the molar concentration.

Summary line: `Nc1ncnc2c1ncn2[C@@H]1O[C@H](COP(=O)(O)OP(=O)(O)OP(=O)(O)O)[C@@H](O)[C@H]1O` , rP2X4R E285A mutant (Rattus norvegicus, UniProt P51577, E285A), reported pEC50 = 5.15

* * *

# System tested: rP2X4R L214A mutant (Rattus norvegicus, UniProt P51577, L214A)
# Protocol description: whole-cell patch clamp, HEK293T cells expressing mutant
# Protocol conditions: naïve receptors, 2–5 s application
Readout type: EC50

For record `Nc1ncnc2c1ncn2[C@@H]1O[C@H](COP(=O)(O)OP(=O)(O)OP(=O)(O)O)[C@@H](O)[C@H]1O` the listed EC50 is 25 µM

* * *

# System tested: rP2X4R D280A mutant (Rattus norvegicus, UniProt P51577, D280A)
# Protocol description: whole-cell patch clamp, HEK293T cells expressing mutant
# Protocol conditions: naïve receptors, 2–5 s application
Readout type: pEC50
Quick note: pEC50 means taking -log10 of the concentration in moles per liter.

Entry `Nc1ncnc2c1ncn2[C@@H]1O[C@H](COP(=O)(O)OP(=O)(O)OP(=O)(O)O)[C@@H](O)[C@H]1O` , pEC50 reported as 4.59

* * *

# System tested: rP2X4R T281A mutant (Rattus norvegicus, UniProt P51577, T281A)
# Construct: expressed in transfected cells; host or cells: HEK293T
# Sequence (P51577 1-388 T281A): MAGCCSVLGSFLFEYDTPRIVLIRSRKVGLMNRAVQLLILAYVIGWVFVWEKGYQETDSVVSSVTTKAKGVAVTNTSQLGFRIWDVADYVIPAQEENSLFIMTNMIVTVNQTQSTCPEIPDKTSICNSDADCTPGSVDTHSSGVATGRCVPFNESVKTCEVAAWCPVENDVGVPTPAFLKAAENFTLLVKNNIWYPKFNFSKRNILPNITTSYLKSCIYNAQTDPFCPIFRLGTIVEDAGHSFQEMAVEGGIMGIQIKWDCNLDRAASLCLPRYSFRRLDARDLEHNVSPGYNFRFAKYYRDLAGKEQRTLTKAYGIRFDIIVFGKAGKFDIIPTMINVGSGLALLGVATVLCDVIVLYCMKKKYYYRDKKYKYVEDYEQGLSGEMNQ
# Protocol description: whole-cell patch clamp, HEK293T cells expressing mutant
# Format: cell-based
# Protocol conditions: naïve receptors, 2–5 s application
Readout type: EC50 (µM)
The answer is to be given in µM; state only the numeric part.

The measured EC50 associated with `Nc1ncnc2c1ncn2[C@@H]1O[C@H](COP(=O)(O)OP(=O)(O)OP(=O)(O)O)[C@@H](O)[C@H]1O` reads 8.2

* * *

# System tested: wild type (WT) rP2X4R (Rattus norvegicus)
# Sequence (P51577 1-388): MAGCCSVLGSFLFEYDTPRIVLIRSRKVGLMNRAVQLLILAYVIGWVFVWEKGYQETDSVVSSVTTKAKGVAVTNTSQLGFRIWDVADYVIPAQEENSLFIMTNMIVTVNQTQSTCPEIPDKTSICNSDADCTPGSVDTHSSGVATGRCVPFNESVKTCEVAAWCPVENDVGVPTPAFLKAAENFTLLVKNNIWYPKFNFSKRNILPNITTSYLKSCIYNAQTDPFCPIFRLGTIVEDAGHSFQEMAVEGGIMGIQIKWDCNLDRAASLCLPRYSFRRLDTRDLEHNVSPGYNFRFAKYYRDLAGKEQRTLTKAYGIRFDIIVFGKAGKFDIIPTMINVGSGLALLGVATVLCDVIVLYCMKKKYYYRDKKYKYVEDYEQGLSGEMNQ
# Protocol description: whole-cell patch clamp, HEK293T cells expressing WT receptor
# Protocol conditions: naïve receptors, 2–5 s application
Listed here are molecules together with their documented pEC50.
Quick note: pEC50 values are minus log10 of concentrations in mol/L.

Here is how some molecules turned out for pEC50.
- Molecule: "CSc1nc(N)c2ncn([C@@H]3O[C@H](COP(=O)(O)OP(=O)(O)OP(=O)(O)O)[C@@H](O)[C@H]3O)c2n1 [2-MeS-ATP, 2-(Methylthio)adenosine 5′-triphosphate]"
  System tested: "wild type (WT) rP2X4R (Rattus norvegicus)"
  Readout type: "pEC50"
  Value reported: 5.10
- Molecule: "Nc1ncnc2c1ncn2C1OC(COP(=O)(O)CP(=O)(O)OP(=O)(O)O)C(O)C1O (stereo not drawn) [α,β-meATP, α,β-methyleneadenosine 5′-triphosphate]"
  System tested: "wild type (WT) rP2X4R (Rattus norvegicus)"
  Readout type: "pEC50"
  Value reported: 4.21

Entry `Nc1ncnc2c1ncn2[C@@H]1O[C@H](COP(=O)(O)OP(=O)(O)OP(=O)(O)O)[C@@H](O)[C@H]1O` ; pEC50 = 5.64

// field: pEC50; key: Nc1ncnc2c1ncn2[C@@H]1O[C@H](CO[P@](=O)(O)O[P@](=O)(O)O[P@@](=O)(O)S)[C@@H](O)[C@H]1O [ATPγS, Adenosine 5′-(γ-thio)triphosphate] ; value = 5.08

* * *

# System tested: rP2X4R R282A mutant (Rattus norvegicus, UniProt P51577, R282A)
# Protocol description: whole-cell patch clamp, HEK293T cells expressing mutant
# Protocol conditions: naïve receptors, 2–5 s application
Readout type: EC50 (µM)
Only the number, expressed in µM, is required.

Input `Nc1ncnc2c1ncn2[C@@H]1O[C@H](COP(=O)(O)OP(=O)(O)OP(=O)(O)O)[C@@H](O)[C@H]1O` . Output EC50: 23

* * *

# System tested: rP2X4R G291A mutant (Rattus norvegicus, UniProt P51577, G291A)
# Protocol description: whole-cell patch clamp, HEK293T cells expressing mutant
# Protocol conditions: naïve receptors, 2–5 s application
Readout type: pEC50
Please treat pEC50 as minus the base-10 logarithm of the molar concentration.

compound `Nc1ncnc2c1ncn2[C@@H]1O[C@H](COP(=O)(O)OP(=O)(O)OP(=O)(O)O)[C@@H](O)[C@H]1O` , pEC50 observed: 4.82

* * *

# System tested: rP2X4R N287A mutant (Rattus norvegicus, UniProt P51577, N287A)
# Protocol description: whole-cell patch clamp, HEK293T cells expressing mutant
# Protocol conditions: naïve receptors, 2–5 s application
Readout type: pEC50
# pEC50 is unitless: minus log10 of the molar concentration; print number only

Memo: `Nc1ncnc2c1ncn2[C@@H]1O[C@H](COP(=O)(O)OP(=O)(O)OP(=O)(O)O)[C@@H](O)[C@H]1O` , reported pEC50: 5.49

* * *

# System tested: rP2X4R H286A mutant (Rattus norvegicus, UniProt P51577, H286A)
# Protocol description: whole-cell patch clamp, HEK293T cells expressing mutant
# Protocol conditions: naïve receptors, 2–5 s application
Readout type: pEC50
// pEC50 here means minus log10 of the molar concentration (mol/L)

// pEC50 value for `Nc1ncnc2c1ncn2[C@@H]1O[C@H](COP(=O)(O)OP(=O)(O)OP(=O)(O)O)[C@@H](O)[C@H]1O` : 4.70

* * *

# System tested: rP2X4R N208A mutant (Rattus norvegicus, UniProt P51577, N208A)
# Sequence (P51577 1-388 N208A): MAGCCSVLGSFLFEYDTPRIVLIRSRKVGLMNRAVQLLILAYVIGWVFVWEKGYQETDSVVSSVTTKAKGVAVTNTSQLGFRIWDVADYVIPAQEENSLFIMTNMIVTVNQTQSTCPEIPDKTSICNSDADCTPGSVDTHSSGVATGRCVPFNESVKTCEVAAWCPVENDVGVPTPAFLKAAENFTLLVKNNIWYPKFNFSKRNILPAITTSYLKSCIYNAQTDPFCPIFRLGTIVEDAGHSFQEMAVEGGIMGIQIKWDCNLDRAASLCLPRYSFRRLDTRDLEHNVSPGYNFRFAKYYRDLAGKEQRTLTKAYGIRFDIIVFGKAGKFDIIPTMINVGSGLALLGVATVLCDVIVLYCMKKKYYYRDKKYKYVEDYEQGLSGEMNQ
# Protocol description: whole-cell patch clamp, HEK293T cells expressing mutant
# Protocol conditions: naïve receptors, 2–5 s application
Readout type: EC50 (µM)
Give just the number in µM; leave the unit off.

Value of EC50 reported for the compound `Nc1ncnc2c1ncn2[C@@H]1O[C@H](COP(=O)(O)OP(=O)(O)OP(=O)(O)O)[C@@H](O)[C@H]1O` is 7.6

* * *

# System tested: rP2X4R D283A mutant (Rattus norvegicus, UniProt P51577, D283A)
# Protocol description: whole-cell patch clamp, HEK293T cells expressing mutant
# Protocol conditions: naïve receptors, 2–5 s application
Readout type: pEC50
A value of pEC50 is the negative decimal logarithm of a concentration given in moles per litre.

Data point: Nc1ncnc2c1ncn2[C@@H]1O[C@H](COP(=O)(O)OP(=O)(O)OP(=O)(O)O)[C@@H](O)[C@H]1O [ATP] ; pEC50 = 5.14
